// reported T/C per item
Test system: L1210 leukemia ip in BDF1 mice, survival T/C
Assay: NCI In Vivo Anticancer Drug Screen. Data for tumor model L1210 Leukemia (intraperitoneal) in B6D2F1 (BDF1) mice
Settings: endpoint: mean survival time; dose: 25.0 mg/kg/injection; schedule: Q04DX002 (ip); vehicle: saline; higher = longer survival
Inconclusive results and toxic doses are left out.
Measured quantity: T/C

INSERT INTO results (compound, result) VALUES
  ('NC(CCl)=NC1CCCCC1', '106 % of control'),
  ('COc1ccc(C2C(C(=O)N3CCN(C)CC3)C2c2ccc(OC)cc2)cc1 (stereo not drawn)', '102 % of control'),
  ('CCC(C(=O)C(C)C(O)C(C)CCc1ccc(C)c(O)c1C(=O)O)C1OC(CC)(C2CCC(O)(CC)C(C)O2)CC1C (stereo not drawn)', '92 % of control');

* * *

Tested on: L1210 leukemia ip in BDF1 mice, survival T/C
Assay: NCI In Vivo Anticancer Drug Screen. Data for tumor model L1210 Leukemia (intraperitoneal) in B6D2F1 (BDF1) mice
Settings: endpoint: mean survival time; dose: 100.0 mg/kg/injection; schedule: Q04DX003 (ip); vehicle: saline with Tween-80; higher = longer survival
Toxic doses and inconclusive results are not listed.
The reader will find reported T/C values listed item by item below.
Measured quantity: T/C

INSERT INTO results (compound, measured_quantity, result) VALUES
  ('CCOP(OCC)N1CCCCCC1=O', 'T/C', '100 % of control'),
  ('C=CCOc1cccc(OCC=C)c1C', 'T/C', '100 % of control'),
  ('O=C1N=C2C=CC=CN2C(=O)C1Cc1ccccc1 (stereo not given)', 'T/C', '98 % of control'),
  ('O=C(Oc1c(Cl)cc(Cl)cc1Cl)c1ccccc1', 'T/C', '98 % of control'),
  ('CCC(=O)O[C@H]1CC[C@H]2[C@@H]3[C@@H](C)CC4=CC(=O)CC[C@]4(C)[C@H]3CC[C@]12C', 'T/C', '90 % of control'),
  ('COc1ccc(C2=CCCCC2)cc1', 'T/C', '105 % of control'),
  ('c1ccc2c(c1)C(=Nc1ccc3ccccc3c1)c1ccccc1-2', 'T/C', '97 % of control'),
  ('O=C(Nc1cccc(Cl)c1)c1ccc2ccccc2c1O', 'T/C', '98 % of control'),
  ('OC1CC2CCC(C1)N2CCCN1c2ccccc2Sc2ccc(Cl)cc21 (stereo not given)', 'T/C', '112 % of control'),
  ('CC(=O)c1ccc(OCC(O)CN2CCN(c3ccccc3)CC2)c(C)c1 (stereo not given)', 'T/C', '108 % of control'),
  ('Cc1cc(=O)[nH]c2c1CCCC2', 'T/C', '92 % of control'),
  ('CC(C(=O)c1ccc(Br)cc1)C(Br)c1ccccc1 (stereo not given)', 'T/C', '96 % of control'),
  ('O=c1cc(/C=N/Nc2ccc([N+](=O)[O-])cc2[N+](=O)[O-])c2cccc3c2n1CCC3', 'T/C', '98 % of control'),
  ('O=C1C(=O)N(CN2CCCCC2)c2ccccc21', 'T/C', '109 % of control'),
  ('N#CCN(CC#N)S(=O)(=O)c1ccccc1', 'T/C', '96 % of control'),
  ('S=C(N/N=C/c1ccc(-c2ccccc2)cc1)Nc1ccccc1', 'T/C', '97 % of control'),
  ('CCCP(=S)(CCC)N(C)C', 'T/C', '101 % of control'),
  ('CCOc1c(Cl)cc(Cl)cc1C(c1ccc(Cl)cc1S(=O)(=O)O)c1cc(Cl)cc(Cl)c1OCC', 'T/C', '89 % of control'),
  ('Cc1cc(C(C)(C)C)c(SC(=O)N(C)C)c(C(C)(C)C)c1', 'T/C', '97 % of control'),
  ('COc1ccc(N=NN(C)C)cc1', 'T/C', '108 % of control'),
  ('CC1=CC(C)(C2(O)c3ccccc3-c3ccccc32)C=C(C)C1', 'T/C', '98 % of control'),
  ('Cc1ccccc1NC(=O)c1ccc([N+](=O)[O-])cc1', 'T/C', '98 % of control'),
  ('ClCC1(CCl)COC(c2ccccc2)OC1', 'T/C', '95 % of control'),
  ('CC1CC(=O)C2CC(Cl)CCC2(C)C1C (stereo not given)', 'T/C', '101 % of control'),
  ('CC(C)=CCC/C(C)=C/CN1C(=O)c2ccccc2C1=O', 'T/C', '93 % of control'),
  ('NS(=O)(=O)c1ccc(Cl)c(Cl)c1', 'T/C', '97 % of control'),
  ('COC(=O)c1ccccc1NC(=S)NC(=O)C(C)Oc1ccccc1 (stereo not given)', 'T/C', '107 % of control'),
  ('O=c1oc2ccc(Cl)cc2c(OCCO)c1Cl', 'T/C', '94 % of control'),
  ('CC1(Cc2ccccc2)CCC(=O)O1 (stereo not given)', 'T/C', '98 % of control'),
  ('CC(C)c1ccc(C(=O)CCCCl)cc1', 'T/C', '97 % of control'),
  ('O=C(O)CCN(Cc1ccccc1)Cc1ccccc1', 'T/C', '108 % of control'),
  ('CC(=O)NC(CCSCc1c2ccccc2c(C)c2ccccc12)C(=O)O (stereo not given)', 'T/C', '95 % of control'),
  ('COc1ccc(CCNC(=O)Cc2ccccc2)cc1OC', 'T/C', '92 % of control'),
  ('CCCCCCC(C)OC(=O)CCl (stereo not given)', 'T/C', '102 % of control'),
  ('NC(=O)c1cc(C(N)=O)cc([N+](=O)[O-])c1', 'T/C', '100 % of control'),
  ('Cc1c(C)c(Br)c(C)c(-c2c(O)c(Br)c(-c3c(C)c(C)c(C)c(Br)c3C)c(O)c2Br)c1C', 'T/C', '97 % of control'),
  ('CC(=O)Nc1cc2c(cc1[N+](=O)[O-])-c1ccccc1C2O (stereo not given)', 'T/C', '102 % of control'),
  ('Cc1ccccc1Nc1n[nH]c(=S)s1', 'T/C', '97 % of control'),
  ('O=C(C1=Cc2ccccc2OC1)N1CCN(C(=O)C2=Cc3ccccc3OC2)CC1', 'T/C', '100 % of control'),
  ('CC(=O)Nc1ccc(NC(=S)NC(=O)COc2ccccc2)cc1', 'T/C', '97 % of control'),
  ('N#COc1cccc(OCCOc2cccc(OC#N)c2)c1', 'T/C', '90 % of control'),
  ('O=S(=O)(OCCCl)c1ccc(Cl)c(S(=O)(=O)OCCCl)c1', 'T/C', '97 % of control'),
  ('CCOC(CN=Cc1cccc2ccccc12)OCC', 'T/C', '95 % of control'),
  ('CCCCN(CCCC)C(=O)C1C=C2c3cccc4[nH]cc(c34)CC2N(C#N)C1 (stereo not given)', 'T/C', '101 % of control'),
  ('S=C(S)NNc1ccccc1', 'T/C', '109 % of control'),
  ('Oc1ccc(Cl)c2c1CCC2', 'T/C', '101 % of control'),
  ('O=C(Nc1ccccc1)Nn1cnc2ccccc2c1=O', 'T/C', '89 % of control'),
  ('S=C(S)NCCNC(=S)S', 'T/C', '93 % of control'),
  ('C=CCCCCCCCCC(=O)NN1CCOCC1', 'T/C', '98 % of control'),
  ('CC1CC(C)(C)N=C(CCC2CCCCCC2=O)O1 (stereo not given)', 'T/C', '93 % of control');

* * *

System: L1210 leukemia ip in BDF1 mice, survival T/C
Test: NCI In Vivo Anticancer Drug Screen. Data for tumor model L1210 Leukemia (intraperitoneal) in B6D2F1 (BDF1) mice
Settings: endpoint: mean survival time; dose: 100.0 mg/kg/injection; schedule: Q04DX002 (ip); vehicle: Klucel (hydroxypropylcellulose) (HPC); higher = longer survival
Toxic doses and inconclusive results are not listed.
Recorded T/C values for a group of compounds are listed next.
Measured quantity: T/C

INSERT INTO assay_data (compound, result) VALUES
  ('CC(=O)OC1CCCCC1NC(=O)NCCCl (stereo unspecified)', '91 % of control'),
  ('CCCCOC(=O)Nc1ccccc1OCC', '109 % of control'),
  ('CC(=O)Oc1ccc([N+](=O)[O-])cc1', '90 % of control'),
  ('Cc1cc2cc3cccnn3c2nn1', '118 % of control'),
  ('N#Cc1cccn1-c1cccc2c(-n3cccc3C#N)cccc12', '101 % of control'),
  ('CCCCCCCCCCCCCc1nc(N)nc(NCCCC)n1', '92 % of control');
